System: ASPS-1 complex tumor spheroids, viability
Experiment: Anticancer human tumor ASPS-1 cell line growth inhibition;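 further: spheroids exposed to agents for 7 days after 3 days of growth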
Conditions: curve of first compound; second compound 0.003 µM
Procedure: Multicellular complex tumor spheroid response to DNA repair inhibitors in combination with DNA-damaging drugs This study explores the anticancer activities of DNA-damaging drugs and inhibitors of DNA damage repair, both as single agents and in combinations. […] Twenty-six patient-derived or established malignant cell lines were evaluated representing sarcoma, melanoma, small cell lung cancer (SCLC), non-small cell lung cancer (NSCLC), as well as bladder, ovarian and pancreatic cancers. […]
pIC50: −log10 of the molar value.
quantityKind: pIC50

# pIC50 (compound: CC(C)n1c(=O)n(C)c2cnc3cc(F)c(-c4ccc(OCCCN5CCCCC5)nc4)cc3c21 + CC[C@@]1(O)C(=O)OCc2c1cc1n(c2=O)Cc2cc3c(CN(C)C)c(O)ccc3nc2-1 ) is 5.18

# pIC50 of CNCc1ccc(-c2cc(-c3nc(-c4ccc(S(=O)(=O)C(C)C)cc4)cnc3N)on2)cc1 + COc1cc2c(cc1O)CCNC21CSC2c3c(OC(C)=O)c(C)c4c(c3C(COC1=O)N1C(O)C3Cc5cc(C)c(OC)c(O)c5C(C21)N3C)OCO4 = > 8.02

Field pIC50 (entry Cn1ncnc1[C@H]1c2n[nH]c(=O)c3cc(F)cc(c23)N[C@@H]1c1ccc(F)cc1 + COc1cc2c(cc1O)CCNC21CSC2c3c(OC(C)=O)c(C)c4c(c3C(COC1=O)N1C(O)C3Cc5cc(C)c(OC)c(O)c5C(C21)N3C)OCO4 ) reads > 8.02

// sample CC1COCCN1c1cc(-c2ccnn2C)c2ccnc(-c3ccn[nH]3)c2n1 (centres undefined) + COc1cc2c(cc1O)CCNC21CSC2c3c(OC(C)=O)c(C)c4c(c3C(COC1=O)N1C(O)C3Cc5cc(C)c(OC)c(O)c5C(C21)N3C)OCO4 , its pIC50 was > 7.50

Cc1cc(C)c(CNC(=O)c2cc(-c3ccc(CN4CCOCC4)cc3)cc3c2cnn3C2CCCC2)c(=O)[nH]1 + COc1cc2c(cc1O)CCNC21CSC2c3c(OC(C)=O)c(C)c4c(c3C(COC1=O)N1C(O)C3Cc5cc(C)c(OC)c(O)c5C(C21)N3C)OCO4 yielded pIC50 of > 7.50

Per the record, O=C(c1cc(Cc2n[nH]c(=O)c3ccccc23)ccc1F)N1CCN(C(=O)C2CC2)CC1 + CC[C@@]1(O)C(=O)OCc2c1cc1n(c2=O)Cc2cc3c(CN(C)C)c(O)ccc3nc2-1 has pIC50 of < 4.52

Given item O=C(c1cc(Cc2n[nH]c(=O)c3ccccc23)ccc1F)N1CCN(C(=O)C2CC2)CC1 + COc1cc2c(cc1O)CCNC21CSC2c3c(OC(C)=O)c(C)c4c(c3C(COC1=O)N1C(O)C3Cc5cc(C)c(OC)c(O)c5C(C21)N3C)OCO4 , the value recorded as its pIC50 is > 7.02

According to the records, this compound Cn1ncnc1[C@H]1c2n[nH]c(=O)c3cc(F)cc(c23)N[C@@H]1c1ccc(F)cc1 + CC[C@@]1(O)C(=O)OCc2c1cc1n(c2=O)Cc2cc3c(CN(C)C)c(O)ccc3nc2-1 displays pIC50 of < 5.52

For this compound ( CNCc1ccc(-c2cc(-c3nc(-c4ccc(S(=O)(=O)C(C)C)cc4)cnc3N)on2)cc1 + CC[C@@]1(O)C(=O)OCc2c1cc1n(c2=O)Cc2cc3c(CN(C)C)c(O)ccc3nc2-1 ), measured pIC50 is 6.32

// pIC50 value for Cc1sc2c(c1C)C(c1ccc(Cl)cc1)=NC(CC(=O)Nc1ccc(O)cc1)c1nnc(C)n1-2 (centres undefined) + CC[C@@]1(O)C(=O)OCc2c1cc1n(c2=O)Cc2cc3c(CN(C)C)c(O)ccc3nc2-1 : < 5.52

get_value(item= CC1COCCN1c1cc(-c2ccnn2C)c2ccnc(-c3ccn[nH]3)c2n1 (centres undefined) + CC[C@@]1(O)C(=O)OCc2c1cc1n(c2=O)Cc2cc3c(CN(C)C)c(O)ccc3nc2-1 , readout=pIC50) returns 6.65

GET /value?item= Cc1cc(C)c(CNC(=O)c2cc(-c3ccc(CN4CCOCC4)cc3)cc3c2cnn3C2CCCC2)c(=O)[nH]1 + CC[C@@]1(O)C(=O)OCc2c1cc1n(c2=O)Cc2cc3c(CN(C)C)c(O)ccc3nc2-1 &field=pIC50 returns < 5.00

Consider COc1cc(C)[nH]c(=O)c1CN1CCc2c(Cl)cc(C(OC)C3COC3)c(Cl)c2C1=O (centres undefined) + COc1cc2c(cc1O)CCNC21CSC2c3c(OC(C)=O)c(C)c4c(c3C(COC1=O)N1C(O)C3Cc5cc(C)c(OC)c(O)c5C(C21)N3C)OCO4 . Its measured pIC50 is > 7.50

Form field pIC50, entry COc1ccc([C@@H](O)c2cc(-c3ncnc4cc(N5CCOCC5)ccc34)c(F)cc2Cl)nn1 + COc1cc2c(cc1O)CCNC21CSC2c3c(OC(C)=O)c(C)c4c(c3C(COC1=O)N1C(O)C3Cc5cc(C)c(OC)c(O)c5C(C21)N3C)OCO4 : > 7.50
